- TGT: UniProtKB P05067
- METHOD: Inhibition of HFIP-pretreated amyloid beta (1 to 42) (unknown origin) self-induced aggregation at 20 uM after 24 hrs by thioflavin-T fluorescence assay relative to control
Exercise: for every item that follows, state its recorded inhibition.
Answers are plain numbers, in %.

Worked examples, 2 molecules total:
COc1ccccc1/C=C/c1cc(=O)c(O)co1: 61.1
O=c1cc(/C=C/c2cc(O)cc(O)c2)occ1O: 56.9

Need inhibition for each of these molecules.
1. O=c1cc(/C=C/c2cccc(F)c2)occ1O
2. COc1cc(/C=C/c2cc(=O)c(O)co2)cc(OC)c1
3. O=c1cc(/C=C/c2ccccc2O)occ1O
4. O=c1cc(/C=C/c2ccccc2)occ1O
5. O=c1cc(/C=C/c2ccc(O)cc2)occ1O

[58, 18.6, 63.6, 42.5, 68.5]

----------
- TGT: Amyloid-beta precursor protein (Homo sapiens)
- Sequence (P05067 whole entry): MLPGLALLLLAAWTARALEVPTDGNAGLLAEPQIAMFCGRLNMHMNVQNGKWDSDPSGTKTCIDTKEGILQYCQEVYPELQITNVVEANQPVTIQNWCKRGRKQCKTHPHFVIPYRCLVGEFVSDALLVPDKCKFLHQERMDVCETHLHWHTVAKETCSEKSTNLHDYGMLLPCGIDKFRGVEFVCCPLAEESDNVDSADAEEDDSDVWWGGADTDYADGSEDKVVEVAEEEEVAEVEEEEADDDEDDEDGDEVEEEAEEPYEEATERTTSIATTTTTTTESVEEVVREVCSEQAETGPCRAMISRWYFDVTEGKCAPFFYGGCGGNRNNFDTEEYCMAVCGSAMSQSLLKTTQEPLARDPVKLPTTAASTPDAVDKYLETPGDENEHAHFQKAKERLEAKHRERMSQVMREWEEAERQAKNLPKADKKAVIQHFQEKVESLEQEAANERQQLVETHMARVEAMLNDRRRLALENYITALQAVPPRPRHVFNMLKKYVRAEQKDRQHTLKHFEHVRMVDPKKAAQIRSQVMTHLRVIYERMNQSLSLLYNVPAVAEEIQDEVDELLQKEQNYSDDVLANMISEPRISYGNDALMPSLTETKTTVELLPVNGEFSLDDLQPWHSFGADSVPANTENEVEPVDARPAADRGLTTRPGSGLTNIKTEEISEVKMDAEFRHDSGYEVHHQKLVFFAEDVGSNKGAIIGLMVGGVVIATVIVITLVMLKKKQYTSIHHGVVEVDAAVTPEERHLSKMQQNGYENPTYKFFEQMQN
- METHOD: Inhibition of HFIP-pretreated amyloid beta (1 to 42) (unknown origin) self-induced aggregation after 24 hrs by thioflavin-T fluorescence assay
QUANTITY NAME: IC50 (µM)
Give bare numbers, in µM.

Worked examples, 5 molecules total:
O=c1cc(/C=C/c2ccccc2O)occ1O: 8.29
O=c1cc(/C=C/c2cc(O)cc(O)c2)occ1O: 17.9
O=c1cc(/C=C/c2cccc(F)c2)occ1O: 17.7
CN(C)c1ccc(/C=C/c2cc(=O)c(O)co2)cc1: 5.92
COc1ccccc1/C=C/c1cc(=O)c(O)co1: 7.93

Okay, now this molecule:
Could you please provide reported IC50 for `O=c1cc(/C=C/c2ccc(O)cc2)occ1O` ? Thanks! 7.2

----------
- TGT: UniProt P05067
- METHOD: Inhibition of HFIP-pretreated amyloid beta (1 to 42) (unknown origin) self-induced aggregation at 20 uM after 24 hrs by thioflavin-T fluorescence assay relative to control
Exercise: for every item that follows, state its recorded inhibition.
One number for each entry, in %.

Worked examples, 2 molecules total:
O=c1cc(/C=C/c2ccc(Cl)cc2)occ1O: 18
CCOc1ccc(/C=C/c2cc(=O)c(O)co2)cc1: 38.2

Okay, now this molecule:
GET inhibition where system = UniProt P05067 and item = `CN(C)c1ccc(/C=C/c2cc(=O)c(O)co2)cc1` 61.2
